All values here come from the RNAGym collection of RNA variant scans (doi:10.1073/pnas.2313332121).

B1: TPR 5TU (parent)
chain: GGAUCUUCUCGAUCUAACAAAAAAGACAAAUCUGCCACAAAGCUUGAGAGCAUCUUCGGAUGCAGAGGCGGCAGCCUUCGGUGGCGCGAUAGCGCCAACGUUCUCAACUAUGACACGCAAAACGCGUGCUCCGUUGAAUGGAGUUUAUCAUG

# Variants of: B1
# TEST_SUMMARY: polymerase ribozyme fitness, log enrichment relative to wild type (log ratio); higher = more active; in vitro selection for triplet polymerase activity
Variants at the floor of the assay were thinned out.
MEASURED_QUANTITY: polymerase ribozyme fitness (log ratio)

In [3]: df
Out[3]:
                                    mutation                        measured_quantity  rel  data_value
 0                          U56A U134A G143C  polymerase ribozyme fitness (log ratio)    =       -4.04
 1          A17U U53G C99A C125G G141U U146C  polymerase ribozyme fitness (log ratio)    ≤        -4.2
 2                           A37U G59C C149G  polymerase ribozyme fitness (log ratio)    ≤        -4.2
 3                                C85U C132U  polymerase ribozyme fitness (log ratio)    =      -0.776
 4                  C27A A28U C38U A39U A47U  polymerase ribozyme fitness (log ratio)    ≤        -4.2
 5           A30C C57U G59C U82A G117A A138C  polymerase ribozyme fitness (log ratio)    ≤        -4.2
 6                     A28C C87G G117C A137U  polymerase ribozyme fitness (log ratio)    ≤        -4.2
 7                            C5U G84A A142U  polymerase ribozyme fitness (log ratio)    =      -0.976
 8                                A41C U148C  polymerase ribozyme fitness (log ratio)    =       -3.07
 9           A39G U56G G58C C79U U102A U127G  polymerase ribozyme fitness (log ratio)    ≤        -4.2
10                            C27U C54U G83U  polymerase ribozyme fitness (log ratio)    =       -2.12
11                      A22C U55A A97G G143C  polymerase ribozyme fitness (log ratio)    =       -3.02
12                     U13A A91G C114U A120G  polymerase ribozyme fitness (log ratio)    =       -4.09
13                            A16G A22U G94A  polymerase ribozyme fitness (log ratio)    =      -0.896
14                    A26U U104C G126C U146A  polymerase ribozyme fitness (log ratio)    =       -2.67
15                       U82G C87U G92U A98G  polymerase ribozyme fitness (log ratio)    =       -2.69
16              C36U U102G C108A C116U A122G  polymerase ribozyme fitness (log ratio)    ≤        -4.2
17                      U13G U56A G86U C131U  polymerase ribozyme fitness (log ratio)    =       -4.16
18  C5A C38U G59A C87G C103A A121U G126A U146C  polymerase ribozyme fitness (log ratio)    ≤        -4.2
19                A28G G34U G80A U102A C108G  polymerase ribozyme fitness (log ratio)    ≤        -4.2
20      A20G A28G U90A C93A C95G A106U C123U  polymerase ribozyme fitness (log ratio)    ≤        -4.2
21                 A23C A41U G68U C93U A106G  polymerase ribozyme fitness (log ratio)    ≤        -4.2
